Molecular target: Receptor-type tyrosine-protein phosphatase C (Homo sapiens)
Sequence (P08575 whole entry): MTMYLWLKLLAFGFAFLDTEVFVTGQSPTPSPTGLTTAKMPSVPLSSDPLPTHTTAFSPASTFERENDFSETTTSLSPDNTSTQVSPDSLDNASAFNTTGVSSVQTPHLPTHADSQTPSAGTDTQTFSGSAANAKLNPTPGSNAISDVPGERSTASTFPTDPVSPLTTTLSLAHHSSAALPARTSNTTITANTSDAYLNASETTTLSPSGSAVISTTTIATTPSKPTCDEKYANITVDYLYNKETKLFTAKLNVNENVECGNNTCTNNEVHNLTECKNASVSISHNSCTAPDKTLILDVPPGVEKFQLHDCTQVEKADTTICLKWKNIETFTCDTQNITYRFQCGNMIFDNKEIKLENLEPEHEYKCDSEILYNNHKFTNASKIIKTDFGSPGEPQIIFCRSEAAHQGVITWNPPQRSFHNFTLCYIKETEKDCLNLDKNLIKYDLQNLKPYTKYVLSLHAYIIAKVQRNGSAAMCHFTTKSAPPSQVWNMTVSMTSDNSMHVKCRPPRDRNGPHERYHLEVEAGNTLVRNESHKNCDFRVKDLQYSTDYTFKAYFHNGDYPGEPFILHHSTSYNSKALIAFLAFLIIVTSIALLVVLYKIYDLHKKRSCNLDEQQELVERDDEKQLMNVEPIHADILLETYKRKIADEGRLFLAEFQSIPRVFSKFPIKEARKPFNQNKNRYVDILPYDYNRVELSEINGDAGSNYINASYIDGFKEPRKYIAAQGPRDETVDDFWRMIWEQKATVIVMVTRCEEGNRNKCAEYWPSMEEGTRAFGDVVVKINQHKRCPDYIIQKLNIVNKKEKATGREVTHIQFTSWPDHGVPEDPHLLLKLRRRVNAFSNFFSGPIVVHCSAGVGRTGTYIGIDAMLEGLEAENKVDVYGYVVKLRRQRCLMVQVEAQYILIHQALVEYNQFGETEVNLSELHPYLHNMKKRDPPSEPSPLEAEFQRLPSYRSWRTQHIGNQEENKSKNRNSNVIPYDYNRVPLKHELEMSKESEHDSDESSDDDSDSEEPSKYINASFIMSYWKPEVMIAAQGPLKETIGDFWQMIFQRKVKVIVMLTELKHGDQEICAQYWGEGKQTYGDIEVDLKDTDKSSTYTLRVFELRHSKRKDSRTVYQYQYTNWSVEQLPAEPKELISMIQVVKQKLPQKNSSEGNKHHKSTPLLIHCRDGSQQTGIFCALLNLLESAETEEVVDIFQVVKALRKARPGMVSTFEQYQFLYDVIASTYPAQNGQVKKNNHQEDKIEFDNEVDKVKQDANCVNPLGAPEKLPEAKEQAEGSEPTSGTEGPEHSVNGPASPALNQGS
Lab note: compare IC50 with 900 nM, writing class 1 if less and class 0 if equal or more.

# smilesData, subjectOfTest, class
data = [
    ("Cc1ccc(-c2oc3cc(O)c(C(=O)O)cc3c2-c2cn(CCCC(=O)Nc3ccc(Cl)c4ccccc34)nn2)cc1", "Receptor-type tyrosine-protein phosphatase C (Homo sapiens)", "class 0"),
    ("COC(=O)c1cc2c(-c3cn(CCCC(=O)Nc4ccc(Cl)c5ccccc45)nn3)c(-c3ccccc3)oc2cc1O", "Receptor-type tyrosine-protein phosphatase C (Homo sapiens)", "class 0"),
    ("Cc1ccc(-c2oc3cc(O)c(C(=O)O)cc3c2-c2cn(CCCC(=O)Nc3cccc4ccccc34)nn2)cc1", "Receptor-type tyrosine-protein phosphatase C (Homo sapiens)", "class 1"),
]

Ask | Lab note: IC50 threshold 900 nM. Does this molecule come in strictly under it? "COc1ccc(-c2oc3cc(O)c(C(=O)O)cc3c2-c2cn(CCCC(=O)Nc3cccc4ccccc34)nn2)cc1"
Reply | class 1
